Target: human CTLA-4 (Y166G and Y183G) expressed on CHO-K1.hCTLA-4 cells (human, UniProt P16410 36-223)
Sequence (P16410 36-223 Y201G/Y218G limits assumed): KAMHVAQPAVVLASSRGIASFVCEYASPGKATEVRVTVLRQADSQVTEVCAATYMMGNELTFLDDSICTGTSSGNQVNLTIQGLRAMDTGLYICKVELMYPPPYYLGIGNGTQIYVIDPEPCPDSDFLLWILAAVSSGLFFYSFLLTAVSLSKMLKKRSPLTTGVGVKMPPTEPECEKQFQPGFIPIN
Assay: CELISA, blockade of biotinylated hCD80/Fc binding to CHO-K1.hCTLA-4 cells
Experimental: CHO-K1.hCTLA-4 cells were seeded in tissue culture plates and incubated at 37° C., 5% CO₂ and 95% humidity in culture medium. Once the cells were confluent culture medium was removed and cells were incubated for 1 hour with the humanized hCTL4.27 antibody variants (10 μg/ml and dilutions thereof) at 37° C., 5% CO₂ and 95% humidity. […] Reactions were stopped with 0.5 M H₂SO₄ and absorbances were read at 450 and 610 nm. […]
readout: IC50 (nM)
Numbers only; they are read as nM.

Query string: Provide measured IC50 value, entry: hCTLA4.27H5L1 (antibody, human IgG4 S228P, kappa, V domains shown, Humanized, human IgG4 (S228P) kappa; H5 read as hCTLA4.27VH5, L1 as hCTLA4.27VL1) VH: EVQLLQAGAVLARPGTSVKISCKASGYSFTTYWMNWVKQRPGKGLEWIGMIHPSDSETSLNQAFKDKAKLTAATSASIAYLEFSSLTNEDSAVYYCARIGRRNPYYFDYWGQGTLVTVSS VL: DIQMTQSPSSLSASVGDRVTITCRPSENLYTNLAWYQQKPGKAPKLLLYGATNLADGVPSRFSGSGSGTDYTLTISSLQPEDFATYYCQHLWGTPFTFGQGTKLEIKR
Result string: 5.39

Query string: Provide measured IC50 value, entry: hCTLA4.27H6L2 (antibody, human IgG4 S228P, kappa, V domains shown, Humanized, human IgG4 (S228P) kappa; H6 read as hCTLA4.27VH6, L2 as hCTLA4.27VL2) VH: EVQLLESGPELVRPGSSVKISCKASGYSFTTYWMNWVKQRPGKGLEWIGMIHPSDSETSLNQAFKDKVKLTAATSASIAYLEFSSLRNEDSAVYYCARMGRRNPYYFDYWGQGTLVTVSS VL: DIQMTQSPSSLSASVGDRVTITCRPSENLYTNLAWYQQKPGKAPKLLIYGATNLADGVPSRFSGSGSGTEFSLSISSLQPEDFATYYCQHLWGTPFTFGGGTKVEIKR
Result string: 1.8

Query string: Provide measured IC50 value, entry: hCTLA4.27H1L3 (antibody, human IgG4 S228P, kappa, V domains shown, Humanized, human IgG4 (S228P) kappa; H1 read as hCTLA4.27VH1, L3 as hCTLA4.27VL3) VH: EVQLLQSGAVLARPGTSVKISCKASGYSFTTYWMNWVKQRPGQGLEWIGMIHPSDSETSLNQAFKDKAKLTAATSASIAYLEFSSLTNEDSAVYYCARMGRRNPYYFDYWGQGTLVTVSS VL: DIQMTQSPSSLSASVGDTVTITCRPSENLYTNLAWYQQKPGKAPKLLLYGATNLADGVPSRFSGSGSGTDYTLTISSLQSEDFATYYCQHLWGTPFTFGQGTKLEIKR
Result string: 3.13

Query string: Provide measured IC50 value, entry: hCTLA4.27H4L1 (antibody, human IgG4 S228P, kappa, V domains shown, Humanized, human IgG4 (S228P) kappa; H4 read as hCTLA4.27VH4, L1 as hCTLA4.27VL1) VH: EVQLVQSGAEVKKPGASVKVSCKASGYSFTTYWMNWVRQAPGQGLEWMGMIHPSDSETSLNQAFKDRVTMTRDTSTSTVYMELSSLRSEDTAVYYCARMGRRNPYYFDYWGQGTLVTVSS VL: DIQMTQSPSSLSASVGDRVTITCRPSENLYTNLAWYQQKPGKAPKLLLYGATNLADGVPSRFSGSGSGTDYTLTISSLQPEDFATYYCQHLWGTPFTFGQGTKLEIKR
Result string: 3.33

Query string: Provide measured IC50 value, entry: hCTLA4.27H1L1 (antibody, human IgG4 S228P, kappa, V domains shown, Humanized, human IgG4 (S228P) kappa; H1 read as hCTLA4.27VH1, L1 as hCTLA4.27VL1) VH: EVQLLQSGAVLARPGTSVKISCKASGYSFTTYWMNWVKQRPGQGLEWIGMIHPSDSETSLNQAFKDKAKLTAATSASIAYLEFSSLTNEDSAVYYCARMGRRNPYYFDYWGQGTLVTVSS VL: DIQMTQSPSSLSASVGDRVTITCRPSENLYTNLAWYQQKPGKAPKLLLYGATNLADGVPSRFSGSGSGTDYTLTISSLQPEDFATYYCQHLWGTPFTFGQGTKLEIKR
Result string: 2.55

Query string: Provide measured IC50 value, entry: hCTLA4.27H2L2 (antibody, human IgG4 S228P, kappa, V domains shown, Humanized, human IgG4 (S228P) kappa; H2 read as hCTLA4.27VH2, L2 as hCTLA4.27VL2) VH: EVQLVQSGAVLVKPGASVKVSCKASGYSFTTYWMNWVRQRPGKGLEWIGMIHPSDSETSLNQAFKDKVTITADESTSTAYMQLSSLRSEDTAVYYCARMGRRNPYYFDYWGQGTTVTVSS VL: DIQMTQSPSSLSASVGDRVTITCRPSENLYTNLAWYQQKPGKAPKLLIYGATNLADGVPSRFSGSGSGTEFSLSISSLQPEDFATYYCQHLWGTPFTFGGGTKVEIKR
Result string: 2.59

Query string: Provide measured IC50 value, entry: hCTLA4.27H3L3 (antibody, human IgG4 S228P, kappa, V domains shown, Humanized, human IgG4 (S228P) kappa; H3 read as hCTLA4.27VH3, L3 as hCTLA4.27VL3) VH: EVQLVQSGAVVAKPGSSVKVSCKASGYSFTTYWMNWVRQAPGQGLEWMGMIHPSDSETSLNQAFKDRVTITADKSTSTAYMELSSLTSEDTAVYYCARMGRRNPYYFDYWGQGTTVTVSS VL: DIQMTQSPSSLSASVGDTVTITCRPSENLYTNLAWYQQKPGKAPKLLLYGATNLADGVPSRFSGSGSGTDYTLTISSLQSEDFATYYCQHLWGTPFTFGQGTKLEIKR
Result string: 3.37

Query string: Provide measured IC50 value, entry: hCTLA4.27H4L5 (antibody, human IgG4 S228P, kappa, V domains shown, Humanized, human IgG4 (S228P) kappa; H4 read as hCTLA4.27VH4, L5 as hCTLA4.27VL5) VH: EVQLVQSGAEVKKPGASVKVSCKASGYSFTTYWMNWVRQAPGQGLEWMGMIHPSDSETSLNQAFKDRVTMTRDTSTSTVYMELSSLRSEDTAVYYCARMGRRNPYYFDYWGQGTLVTVSS VL: DIQMTQAPSSLSASVGDRVTITCRPSENLYTNLAWYQQKPGKAPKLLLYGATNLADGVPSRFSGSGSGTDYTLTISSLQAEDFATYYCQHLWGTPFTFGGGTKLEIKR
Result string: 3.08

Query string: Provide measured IC50 value, entry: hCTLA4.27H4L2 (antibody, human IgG4 S228P, kappa, V domains shown, Humanized, human IgG4 (S228P) kappa; H4 read as hCTLA4.27VH4, L2 as hCTLA4.27VL2) VH: EVQLVQSGAEVKKPGASVKVSCKASGYSFTTYWMNWVRQAPGQGLEWMGMIHPSDSETSLNQAFKDRVTMTRDTSTSTVYMELSSLRSEDTAVYYCARMGRRNPYYFDYWGQGTLVTVSS VL: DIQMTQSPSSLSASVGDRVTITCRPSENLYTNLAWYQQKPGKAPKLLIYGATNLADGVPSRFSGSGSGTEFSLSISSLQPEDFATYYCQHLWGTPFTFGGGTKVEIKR
Result string: 2.52

Query string: Provide measured IC50 value, entry: hCTLA4.27H5L5 (antibody, human IgG4 S228P, kappa, V domains shown, Humanized, human IgG4 (S228P) kappa; H5 read as hCTLA4.27VH5, L5 as hCTLA4.27VL5) VH: EVQLLQAGAVLARPGTSVKISCKASGYSFTTYWMNWVKQRPGKGLEWIGMIHPSDSETSLNQAFKDKAKLTAATSASIAYLEFSSLTNEDSAVYYCARIGRRNPYYFDYWGQGTLVTVSS VL: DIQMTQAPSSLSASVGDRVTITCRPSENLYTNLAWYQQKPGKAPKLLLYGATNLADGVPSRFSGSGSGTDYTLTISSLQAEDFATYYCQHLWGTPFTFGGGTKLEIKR
Result string: 1.91
